biological target: HIV-1 RT Tyr501Az-Phe (Human immunodeficiency virus type 1, UniProt P03366, Y1100X); experiment: FRET-based RNase H assay, Tyr501Az-Phe RT

{"columns": ["input.smiles", "IC50 [µM]"],
 "data": [
  ["NC(=O)c1c(N)sc2c1CCCCC2", 89.6]
]}

---

molecular target: HIV-1 RT RNase H activity (wild type p66/p51) (Human immunodeficiency virus type 1); assay: FRET-based RNase H assay, wild-type HIV-1 RT; type: biochemical
readout.kind: IC50 (µM)

{"columns": ["compound", "readout.kind", "value.measured"],
 "data": [
  ["CC(C)c1ccc(O)c(=O)c(O)c1 [β-thujaplicinol, reference compound]", "IC50", 0.25],
  ["NC(=O)c1c(N)sc2c1CCCCC2", "IC50", 6.6]
]}

Entry source: paper PMC2941776
